PROPERTY_LABEL: log10 Ki (log10 of the value in nM)
A value of 2 here means Ki of 100 in nM, since values are log10.

Give log10 Ki (5-HT-1A receptors (Rattus norvegicus, UniProt P19327)) of the following compound: COc1ccccc1N1CCN(CCCNc2c(Cl)cnn(C)c2=O)CC1 0.15

Give log10 Ki (5-HT-1A receptors (Rattus norvegicus, UniProt P19327)) of the following compound: COc1ccccc1N1CCN(CCNc2cnn(C)c(=O)c2Br)CC1 1.53

Give log10 Ki (5-HT-1A receptors (Rattus norvegicus, UniProt P19327)) of the following compound: COc1ccccc1N1CCN(CCNc2c(Cl)cnn(C(C)(C)C)c2=O)CC1 0.98

Give log10 Ki (5-HT-1A receptors (Rattus norvegicus, UniProt P19327)) of the following compound: COc1ccccc1N1CCN(CCNc2cc(Cl)nn(C)c2=O)CC1 1.45

Give log10 Ki (5-HT-1A receptors (Rattus norvegicus, UniProt P19327)) of the following compound: Cn1ncc(NCCN2CCN(c3ccccc3F)CC2)c(Cl)c1=O 2.60

Give log10 Ki (5-HT-1A receptors (Rattus norvegicus, UniProt P19327)) of the following compound: COc1ccccc1N1CCN(CCNc2cnn(CCO)c(=O)c2Cl)CC1 1.94

Give log10 Ki (5-HT-1A receptors (Rattus norvegicus, UniProt P19327)) of the following compound: Cn1nccc(NCCN2CCN(c3ccccc3)CC2)c1=O 2.42

Give log10 Ki (5-HT-1A receptors (Rattus norvegicus, UniProt P19327)) of the following compound: Cn1ncc(Cl)c(NCCN2CCN(c3ccccc3F)CC2)c1=O 1.91

Give log10 Ki (5-HT-1A receptors (Rattus norvegicus, UniProt P19327)) of the following compound: COc1ccccc1N1CCN(CCNc2c(OC)cnn(C)c2=O)CC1 1.96

Give log10 Ki (5-HT-1A receptors (Rattus norvegicus, UniProt P19327)) of the following compound: CCN(CCN1CCN(c2ccccc2OC)CC1)c1cnn(C)c(=O)c1 1.38

Give log10 Ki (5-HT-1A receptors (Rattus norvegicus, UniProt P19327)) of the following compound: COc1ccccc1N1CCN(CCNc2cnn(C(C)(C)C)c(=O)c2Cl)CC1 1.60

###

Give measured Ki for each item. Keep answers brief.
Target: alpha1 adrenoceptors (Rattus norvegicus)
Sequence (P15823 1-515): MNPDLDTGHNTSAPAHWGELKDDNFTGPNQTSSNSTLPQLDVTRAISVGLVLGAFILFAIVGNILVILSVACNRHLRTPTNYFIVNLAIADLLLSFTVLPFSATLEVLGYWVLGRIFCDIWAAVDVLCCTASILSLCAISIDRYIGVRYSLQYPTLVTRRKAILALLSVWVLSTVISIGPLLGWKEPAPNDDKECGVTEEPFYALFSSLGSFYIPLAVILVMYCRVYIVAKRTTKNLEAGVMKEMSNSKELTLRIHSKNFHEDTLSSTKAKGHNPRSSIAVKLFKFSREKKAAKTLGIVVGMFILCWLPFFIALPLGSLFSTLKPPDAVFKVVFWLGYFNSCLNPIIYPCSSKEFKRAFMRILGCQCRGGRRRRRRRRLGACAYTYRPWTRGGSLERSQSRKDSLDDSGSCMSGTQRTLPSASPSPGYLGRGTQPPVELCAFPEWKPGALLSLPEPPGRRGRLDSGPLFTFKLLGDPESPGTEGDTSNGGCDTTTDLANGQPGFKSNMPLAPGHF
Answer in nM, number only, no unit symbol.

So what's the measured Ki for this one? COc1ccccc1N1CCN(CCCN(C)c2cnn(C)c(=O)c2Cl)CC1 3.55

So what's the measured Ki for this one? CCN(CCN1CCN(c2ccccc2OC)CC1)c1cnn(C)c(=O)c1 20.6

So what's the measured Ki for this one? COc1ccccc1N1CCN(CCNc2cnn(C(C)(C)C)c(=O)c2)CC1 6.03

So what's the measured Ki for this one? COc1ccccc1N1CCN(CCNc2cc(Cl)n[nH]c2=O)CC1 12.8

So what's the measured Ki for this one? CCOc1ccccc1N1CCN(CCNc2cnn(C)c(=O)c2Cl)CC1 7.59

So what's the measured Ki for this one? COc1cc(C)ccc1N1CCN(CCNc2c(Cl)cnn(C)c2=O)CC1 22.4

So what's the measured Ki for this one? COc1cc(C)ccc1N1CCN(CCCNc2cc(Cl)n[nH]c2=O)CC1 7.49

So what's the measured Ki for this one? CCN(CCN1CCN(c2ccccc2OC)CC1)c1ccnn(C)c1=O 68

So what's the measured Ki for this one? Cn1ncc(NCCN2CCN(c3cccc(C(F)(F)F)c3)CC2)c(Cl)c1=O 94.2

So what's the measured Ki for this one? Cn1ncc(Cl)c(NCCN2CCN(c3ccccc3)CC2)c1=O 86.7

So what's the measured Ki for this one? Cc1ccc(N2CCN(CCCNc3c(Cl)cnn(C)c3=O)CC2)c(O)c1 5.34

So what's the measured Ki for this one? CCN(CCN1CCN(c2ccccc2OC)CC1)c1cnn(C)c(=O)c1Cl 37.1

So what's the measured Ki for this one? COc1ccc(C)cc1N1CCN(CCNc2cnn(C)c(=O)c2Cl)CC1 6.98

So what's the measured Ki for this one? COc1ccccc1N1CCN(CCCNc2ccn[nH]c2=O)CC1 26.1

So what's the measured Ki for this one? COc1ccccc1N1CCN(CCNc2c(Br)cnn(C)c2=O)CC1 1.33

So what's the measured Ki for this one? Cc1ccccc1N1CCN(CCNc2c(Cl)cnn(C)c2=O)CC1 1.21

So what's the measured Ki for this one? COc1ccccc1N1CCN(CCNc2cnn(CCN(C)C)c(=O)c2Cl)CC1 17.3

So what's the measured Ki for this one? Cn1ncc(NCCN2CCN(c3ccccc3O)CC2)c(Cl)c1=O 15.4

So what's the measured Ki for this one? COc1ccccc1N1CCN(CCCCNc2cnn(C)c(=O)c2)CC1 5.38

So what's the measured Ki for this one? COc1ccccc1N1CCN(CCCCNc2ccnn(C)c2=O)CC1 11.8

So what's the measured Ki for this one? Cn1ncc(NCCN2CCN(c3ccccc3OCc3ccccc3)CC2)c(Cl)c1=O 2

So what's the measured Ki for this one? Cc1ccc(N2CCN(CCCNc3cnn(C)c(=O)c3Cl)CC2)c(O)c1 4.33

So what's the measured Ki for this one? COc1ccccc1N1CCN(CCNc2cnn(-c3ccccc3)c(=O)c2)CC1 61.6

So what's the measured Ki for this one? CC(C)Oc1ccccc1N1CCN(CCNc2cc(Cl)n[nH]c2=O)CC1 10

So what's the measured Ki for this one? Cc1ccccc1N1CCN(CCCNc2cnn(C)c(=O)c2)CC1 49.3

So what's the measured Ki for this one? CCOc1ccccc1N1CCN(CCCNc2ccn[nH]c2=O)CC1 13

So what's the measured Ki for this one? Cc1ccccc1N1CCN(CCCNc2cnn(C)c(=O)c2Cl)CC1 31.4

So what's the measured Ki for this one? COc1ccccc1N1CCN(CCCNc2c(Cl)cnn(C)c2=O)CC1 3.48

So what's the measured Ki for this one? Cc1ccc(N2CCN(CCCNc3ccnn(C)c3=O)CC2)c(O)c1 20.9

So what's the measured Ki for this one? COc1ccccc1N1CCN(CCNc2cnn(CCO)c(=O)c2Cl)CC1 10.8

So what's the measured Ki for this one? COc1ccccc1N1CCN(CCNc2cnn(CCN(C)C)c(=O)c2)CC1 229

So what's the measured Ki for this one? COc1cc(C)ccc1N1CCN(CCNc2ccnn(C)c2=O)CC1 171

So what's the measured Ki for this one? COc1ccccc1N1CCN(CCNc2c(Cl)cnn(C)c2=O)CC1 1.5

So what's the measured Ki for this one? COc1ccccc1N1CCN(CCCNc2cc(=O)n(C)c(=O)n2C)CC1 [URAPIDIL, reference compound] 110

So what's the measured Ki for this one? COc1cc(C)ccc1N1CCN(CCNc2cnn(C)c(=O)c2)CC1 207

So what's the measured Ki for this one? CCOc1cc(C)ccc1N1CCN(CCCNc2c(Cl)cnn(C)c2=O)CC1 4.99

So what's the measured Ki for this one? COc1ccccc1N1CCN(CCNc2cnn(C)c(=O)c2)CC1 190

So what's the measured Ki for this one? COc1ccccc1N1CCN(CCCNc2cc(Cl)n[nH]c2=O)CC1 11

So what's the measured Ki for this one? COc1ccc(C)cc1N1CCN(CCNc2ccnn(C)c2=O)CC1 73.6

So what's the measured Ki for this one? Cn1ncc(NCCN2CCN(c3ccccc3)CC2)c(Cl)c1=O 4.05

This collection of values is drawn from patent US5034391A.
